Each recorded value in this set is attributed to patent US20260053904A1.

target: T1, recombinant human EpCAM extracellular domain (human, UniProt P16422 24-265)
T1 construct: extracellular domain; Plate-coated antigen of the ELISAs; also called human EpCAM ECD; recombinant EpCAM antigen
T1 sequence (looked up): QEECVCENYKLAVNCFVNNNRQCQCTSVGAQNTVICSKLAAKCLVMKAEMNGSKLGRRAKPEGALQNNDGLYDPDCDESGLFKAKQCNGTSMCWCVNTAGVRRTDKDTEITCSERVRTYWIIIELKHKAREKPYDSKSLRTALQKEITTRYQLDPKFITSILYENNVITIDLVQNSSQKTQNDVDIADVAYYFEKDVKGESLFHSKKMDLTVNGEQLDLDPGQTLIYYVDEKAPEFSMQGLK
test: ELISA, human EpCAM, pH 7.4
Procedure: The binding activities of the humanized conditionally active anti-EpCAM antibodies to human EpCAM were measured by ELISA, using the template antibody BAP-1-5-01-06, as a control. The EC50 values of the humanized conditionally active anti-EpCAM antibodies for binding to human EpCAM at pH 6.0 and pH 7.4 are summarized in Table 5. The ELISA assay was performed using the following protocol: [0388] […]
measurement-type: EC50 (ng/mL)
Give the number; ng/mL is assumed, so skip it.

Lookup: What does the record list as EC50 for BAP-105-01-01 (antibody, V domains shown, Non-conditionally active control; also called template antibody (WT)) VH: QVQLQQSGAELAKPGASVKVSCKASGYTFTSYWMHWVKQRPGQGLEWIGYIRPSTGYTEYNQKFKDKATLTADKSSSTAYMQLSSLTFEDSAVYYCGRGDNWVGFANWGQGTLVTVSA VL: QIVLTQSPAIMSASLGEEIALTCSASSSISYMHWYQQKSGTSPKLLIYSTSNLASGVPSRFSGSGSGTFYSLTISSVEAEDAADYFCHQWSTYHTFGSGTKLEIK ?
Found: 7.81
